Read-out: DNA damage-inducible transcript 3 (DDIT3), DDIT3 (gene 1649)
protocol_description: LTEA_HepaRG_DDIT3: Life Technologies and Expression Analysis (LTEA) Assay for DNA damage-inducible transcript 3 (DDIT3) using HepaRG (AID 2283488)
condition: mRNA level, 48 h; actives raise or lower the signal
Activity calls are given as the source filed them. How the source made its calls: active means hit-call score of the fitted dose curve at least 0.9, where 1 is the maximum; inactive means score below 0.9.
Outcome codes: active, inactive

molecule: CCOC(=O)C(Cl)Cc1cc(-n2nc(C)n(C(F)F)c2=O)c(F)cc1Cl (centres undefined)
group_label: inactive
//
molecule: CCCCC(CC)COC(=O)c1ccccc1C(=O)OCC(CC)CCCC (centres undefined)
group_label: inactive
//
molecule: OC(c1ccc(Cl)cc1)(c1cncnc1)c1ccccc1Cl (centres undefined)
group_label: active
//
molecule: CC(C)C1(C)N=C(c2nc3ccccc3cc2C(=O)O)NC1=O (centres undefined)
group_label: inactive
//
molecule: Cc1ccc(-c2c(Cl)nc(C#N)n2S(=O)(=O)N(C)C)cc1
group_label: active
//
molecule: CCCCOC(=O)c1ccccc1C(=O)OCCCC
group_label: inactive
//
molecule: CCOP(=S)(OCC)SCn1c(=O)oc2cc(Cl)ccc21
group_label: inactive
//
molecule: CCCCNC(=O)n1c(NC(=O)OC)nc2ccccc21
group_label: inactive
//
molecule: O=C(Nc1ccccc1)Nc1ccnc(Cl)c1
group_label: inactive
//
molecule: Cc1cc(Cl)ccc1OCC(=O)O
group_label: inactive
//
molecule: CC(C)(C)c1ccc(CSc2cnn(C(C)(C)C)c(=O)c2Cl)cc1
group_label: active
//
molecule: C=CCC1=C(C)C(OC(=O)C2C(C=C(C)C)C2(C)C)CC1=O (centres undefined)
group_label: inactive
//
molecule: CCNc1nc(Cl)nc(NC(C)C)n1
group_label: inactive
//
molecule: CON(C)C(=O)Nc1ccc(Cl)c(Cl)c1
group_label: inactive
//
molecule: COP(=S)(OC)Oc1nc(Cl)c(Cl)cc1Cl
group_label: inactive
//
molecule: N#Cc1cc(Br)c(O)c(Br)c1
group_label: active
//
molecule: COP(N)(=O)SC (centres undefined)
group_label: inactive
//
molecule: CNC(=O)ON=CC(C)(C)SC
group_label: inactive
//
molecule: CC(C)Oc1cc(-n2nc(C(C)(C)C)oc2=O)c(Cl)cc1Cl
group_label: active
//
molecule: CCON=C(CC)C1=C(O)CC(c2c(C)cc(C)cc2C)CC1=O (centres undefined)
group_label: inactive
//
molecule: CNC(=S)S
group_label: inactive
//
molecule: O=C(O)c1nc(Cl)ccc1Cl
group_label: inactive
//
molecule: CS/C(C)=N/OC(=O)N(C)SN(C)C(=O)O/N=C(\C)SC
group_label: inactive
//
molecule: Fc1ccc(Oc2ccnc3cc(Cl)cc(Cl)c23)cc1
group_label: active
//
molecule: COC(=O)C=C(C)OP(=O)(OC)OC
group_label: inactive
//
molecule: CCCC1COC(Cn2cncn2)(c2ccc(Cl)cc2Cl)O1 (centres undefined)
group_label: active
//
molecule: C#CCOS(=O)OC1CCCCC1Oc1ccc(C(C)(C)C)cc1 (centres undefined)
group_label: active
//
molecule: CC(Oc1ccc(Cl)cc1Cl)C(=O)O (centres undefined)
group_label: inactive
//
molecule: CCCCNC(=O)OCC#CI
group_label: inactive
//
molecule: COc1cnc(OC)n2nc(NS(=O)(=O)c3c(OCC(F)F)cccc3C(F)(F)F)nc12
group_label: inactive
//
molecule: COc1ccc(C(c2ccc(OC)cc2)C(Cl)(Cl)Cl)cc1
group_label: active
//
molecule: C=CCC1=C(C)[C@@H](OC(=O)[C@@H]2[C@@H](C=C(C)C)C2(C)C)CC1=O
group_label: inactive
//
molecule: O=C(O)COc1nc(Cl)c(Cl)cc1Cl
group_label: inactive
//
molecule: COC(=O)N(OC)c1ccccc1COc1ccn(-c2ccc(Cl)cc2)n1
group_label: active

###

protocol_description: CCTE_Shafer_MEA_acute_per_network_burst_electrodes_number_mean: CCTE's Neural Acute Assay for Mean Number of Electrodes in a Network Burst, Shafer Lab (AID 2284021);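 further: curves fitted for decreases only so hits reduce electrodes per burst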
Activity calls are given as the source filed them. The calls were made as follows: active = hit-call score of the fitted dose curve at least 0.9, where 1 is the maximum; inactive = score below 0.9.
Outcome codes: active, inactive

molecule: CCCC1COC(Cn2cncn2)(c2ccc(Cl)cc2Cl)O1 (centres undefined)
group_label: active
--
molecule: CC(Oc1ccc(Cl)cc1Cl)C(=O)O (centres undefined)
group_label: inactive
--
molecule: OC(c1ccc(Cl)cc1)(c1cncnc1)c1ccccc1Cl (centres undefined)
group_label: active
--
molecule: C#CCOS(=O)OC1CCCCC1Oc1ccc(C(C)(C)C)cc1 (centres undefined)
group_label: inactive
--
molecule: N#CC(CCc1ccc(Cl)cc1)(Cn1cncn1)c1ccccc1 (centres undefined)
group_label: inactive
--
molecule: CCCN(CCC)c1c([N+](=O)[O-])cc(S(N)(=O)=O)cc1[N+](=O)[O-]
group_label: inactive
--
molecule: CCCCNC(=O)OCC#CI
group_label: active
--
molecule: COP(N)(=O)SC (centres undefined)
group_label: inactive
--
molecule: CC(C)(C)c1ccc(CSc2cnn(C(C)(C)C)c(=O)c2Cl)cc1
group_label: active

###

protocol_description: ATG_MRE_CIS: Attagene CIS-FACTORIAL HepG2 Assay for human Metal Responsive Element (MRE) (AID 2282954)
condition: HepG2 MRE cis-reporter transcription, Attagene multiplex; actives raise or lower the signal
Active and inactive are the calls of the source. The calls were made as follows: active = hit-call score of the fitted dose curve at least 0.9, where 1 is the maximum; inactive = score below 0.9.
Outcome codes: y = active, n = inactive

compound: COP(N)(=O)SC (configuration not stated)
group_label: n
//
compound: N#Cc1cc(Br)c(O)c(Br)c1
group_label: y
//
compound: COC(=O)c1ccccc1C(=O)OC
group_label: n
//
compound: C#CCOS(=O)OC1CCCCC1Oc1ccc(C(C)(C)C)cc1 (configuration not stated)
group_label: y
//
compound: CCOP(=S)(OCC)SCn1c(=O)oc2cc(Cl)ccc21
group_label: y
//
compound: CC(Oc1ccc(Cl)cc1Cl)C(=O)O (configuration not stated)
group_label: n
//
compound: CCCCNC(=O)n1c(NC(=O)OC)nc2ccccc21
group_label: n

###

protocol_description: ATG_ERE_CIS: Attagene CIS-FACTORIAL HepG2 Assay for Estrogen Response Element (ERE) (AID 2282940)
condition: HepG2 ERE cis-reporter, Attagene RNA transcript; actives raise or lower the signal
Activity calls are given as the source filed them. Rule for the calls: active = hit-call score of the fitted dose curve at least 0.9, where 1 is the maximum; inactive = score below 0.9.
Outcome codes: active, inactive

compound: CCCCNC(=O)OCC#CI
group_label: inactive

compound: COC(=O)N(OC)c1ccccc1COc1ccn(-c2ccc(Cl)cc2)n1
group_label: inactive

compound: CC(C)(C)c1ccc(CSc2cnn(C(C)(C)C)c(=O)c2Cl)cc1
group_label: active

compound: COP(=S)(OC)Oc1nc(Cl)c(Cl)cc1Cl
group_label: active

compound: N#Cc1cc(Br)c(O)c(Br)c1
group_label: active

compound: CNC(=S)S
group_label: inactive

compound: CCOP(=S)(OCC)SCn1c(=O)oc2cc(Cl)ccc21
group_label: inactive

compound: COC(=O)c1ccccc1C(=O)OC
group_label: inactive

compound: Cc1c(F)c(F)c(COC(=O)C2C(/C=C(\Cl)C(F)(F)F)C2(C)C)c(F)c1F (stereo not drawn)
group_label: inactive

compound: COc1nc(C)nc(NC(=O)NS(=O)(=O)c2ccccc2CCC(F)(F)F)n1
group_label: inactive

compound: C=CC1(C)OC(=O)N(c2cc(Cl)cc(Cl)c2)C1=O (stereo not drawn)
group_label: inactive

compound: COP(N)(=O)SC (stereo not drawn)
group_label: inactive

compound: CCCCOC(=O)c1ccccc1C(=O)OCCCC
group_label: active

###

tested_on: Estrogen receptor (Homo sapiens)
protocol_description: OT_ERa_GFPERaERE_0120: Odyssey Thera (OT) 2-hour HeLa Transcription Induction Assay for Estrogen Receptor (AID 2283382)
Calls of active or inactive are those of the source. How the source made its calls: active means hit-call score of the fitted dose curve at least 0.9, where 1 is the maximum; inconclusive means response in the unintended direction; inactive means score below 0.9.
Outcome codes: yes (1) (active), no (0) (inactive)

compound: CCON=C(CC)C1=C(O)CC(c2c(C)cc(C)cc2C)CC1=O (centres undefined)
group_label: no (0)
//
compound: CCCCNC(=O)n1c(NC(=O)OC)nc2ccccc21
group_label: no (0)
//
compound: COP(N)(=O)SC (centres undefined)
group_label: no (0)
//
compound: Cc1ccc(-c2c(Cl)nc(C#N)n2S(=O)(=O)N(C)C)cc1
group_label: no (0)
//
compound: CC(Oc1ccc(Cl)cc1Cl)C(=O)O (centres undefined)
group_label: no (0)
//
compound: COC(=O)C=C(C)OP(=O)(OC)OC
group_label: no (0)
//
compound: CNC(=O)ON=CC(C)(C)SC
group_label: no (0)
//
compound: CCCC1COC(Cn2cncn2)(c2ccc(Cl)cc2Cl)O1 (centres undefined)
group_label: no (0)
//
compound: COP(=S)(OC)Oc1nc(Cl)c(Cl)cc1Cl
group_label: no (0)
//
compound: N#Cc1cc(Br)c(O)c(Br)c1
group_label: no (0)
//
compound: O=C(O)COc1nc(Cl)c(Cl)cc1Cl
group_label: no (0)
//
compound: CCCCNC(=O)OCC#CI
group_label: yes (1)
//
compound: CCOP(=S)(OCC)SCn1c(=O)oc2cc(Cl)ccc21
group_label: no (0)
//
compound: CCOC(=O)CC(SP(=S)(OC)OC)C(=O)OCC (centres undefined)
group_label: no (0)
